- Tgt: butyrylcholinesterase (BuChE) (Homo sapiens, UniProt P06276)
- Sequence (P06276 29-602): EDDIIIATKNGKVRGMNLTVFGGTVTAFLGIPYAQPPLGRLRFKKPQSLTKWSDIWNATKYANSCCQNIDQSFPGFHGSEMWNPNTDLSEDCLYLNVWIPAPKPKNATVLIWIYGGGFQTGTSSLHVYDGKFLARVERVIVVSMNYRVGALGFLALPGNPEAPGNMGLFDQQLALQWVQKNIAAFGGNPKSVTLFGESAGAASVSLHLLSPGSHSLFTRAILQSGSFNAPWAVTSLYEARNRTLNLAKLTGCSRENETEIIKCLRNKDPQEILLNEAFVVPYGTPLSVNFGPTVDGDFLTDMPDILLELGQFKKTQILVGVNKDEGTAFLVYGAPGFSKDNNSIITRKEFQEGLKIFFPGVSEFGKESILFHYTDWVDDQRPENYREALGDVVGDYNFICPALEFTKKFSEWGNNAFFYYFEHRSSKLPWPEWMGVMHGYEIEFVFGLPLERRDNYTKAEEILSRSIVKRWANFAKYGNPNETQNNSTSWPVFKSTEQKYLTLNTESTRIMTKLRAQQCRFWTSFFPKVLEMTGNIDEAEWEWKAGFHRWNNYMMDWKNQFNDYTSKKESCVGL
- Assay summary: biochemical
- Details: in vitro, 25 °C, pH 8.0, triplicate; standards listed separately for series 1–13 and 14–26; read-out: BuChE Inhibition IC50 ± SEM
Measurement name: pIC50
By convention, pIC50 is the negative base-10 log of a molar concentration.

input: Tell me its pIC50 on butyrylcholinesterase (BuChE) (Homo sapiens, UniProt P06276): `COc1ccc2[nH]c(SC/C(=N/N=C/N3CCCCC3)c3ccc(-c4ccccc4)cc3)nc2c1`
output: 4.33

input: Tell me pIC50 of `COc1ccccc1/C(CSc1nc2ccccc2[nH]1)=N\N=C\N1CCCCC1` when tested on butyrylcholinesterase (BuChE) (Homo sapiens, UniProt P06276).
output: 4.42

input: Provide pIC50, system butyrylcholinesterase (BuChE) (Homo sapiens, UniProt P06276), entry `COc1ccc(/C(CSc2nc3cc(OC)ccc3[nH]2)=N\N=C\c2cc[nH]c2)cc1`
output: 4.63

input: Fill in: pIC50 on butyrylcholinesterase (BuChE) (Homo sapiens, UniProt P06276), entry `Cc1ccc(/C(CSc2nc3ccccc3[nH]2)=N\N=C\N2CCCCC2)cc1`
output: 4.44

input: Provide pIC50, system butyrylcholinesterase (BuChE) (Homo sapiens, UniProt P06276), entry `C(=N\N=C(\CSc1nc2ccccc2[nH]1)c1ccc(-c2ccccc2)cc1)/c1cc[nH]c1`
output: 4.43

input: // fetch pIC50 for `O=[N+]([O-])c1cccc(/C(CSc2nc3ccccc3[nH]2)=N\N=C\c2cc[nH]c2)c1` ; system: butyrylcholinesterase (BuChE) (Homo sapiens, UniProt P06276)
output: 4.49

input: // fetch pIC50 for `O=[N+]([O-])c1ccc2[nH]c(SC/C(=N/N=C/c3cc[nH]c3)c3ccc(-c4ccccc4)cc3)nc2c1` ; system: butyrylcholinesterase (BuChE) (Homo sapiens, UniProt P06276)
output: 4.42

input: Would you please give the reported pIC50 of `COc1ccccc1/C(CSc1nc2ccccc2[nH]1)=N\N=C\c1cc[nH]c1` with butyrylcholinesterase (BuChE) (Homo sapiens, UniProt P06276)?
output: 4.60
